Data provenance: ChEMBL document CHEMBL2321762

Test: AUC (0 to infinity) in rat at 2 mg/kg, iv and 10 mg/kg, po
Type: ADME, organism-based
Conditions: plasma

Mol Smiles	Unit Label	AUC(0-inf)
CCCS(=O)(=O)N1CCN(C2(CNC(=O)c3c(F)cccc3F)CCC(F)(F)CC2)CC1	µg·h/mL	2

---

Experiment: Tmax in rat at 2 mg/kg, iv and 10 mg/kg, po
Format: ADME, organism-based
Conditions: in vivo

Mol Smiles	Tmax / h
CCCS(=O)(=O)N1CCN(C2(CNC(=O)c3c(F)cccc3F)CCC(F)(F)CC2)CC1	1.5

---

Assay: Cmax in rat at 2 mg/kg, iv and 10 mg/kg, po
Assay type: ADME, organism-based
Settings: in vivo

Mol Smiles	Cmax
CCCS(=O)(=O)N1CCN(C2(CNC(=O)c3c(F)cccc3F)CCC(F)(F)CC2)CC1	486 ng/mL
